Molecular target: PD-1 (UniProt Q15116 25-167, limits assumed)
Sequence (Q15116 25-167 limits assumed): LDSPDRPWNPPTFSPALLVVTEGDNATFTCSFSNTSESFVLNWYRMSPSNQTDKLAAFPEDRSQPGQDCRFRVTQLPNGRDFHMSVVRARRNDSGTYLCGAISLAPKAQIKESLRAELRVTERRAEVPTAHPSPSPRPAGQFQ
Assay: ELISA; Cys mutant, no arm
measured-metric: binding activity, % of wild type (%)
One number for each entry, in %.

anti-PD-1 antibody 2 HC Ala88Cys (antibody, human IgG4 S228P, kappa, V domains shown, arm on Cys88 as named in each row) VH: QVQLVESGGGVVQPGRSLRLDCKASGITFSNSGMHWVRQAPGKGLEWVAVIWYDGSKRYYADSVKGRFTISRDNSKNTLFLQMNSLRCEDTAVYYCATNDDYWGQGTLVTVSS VL: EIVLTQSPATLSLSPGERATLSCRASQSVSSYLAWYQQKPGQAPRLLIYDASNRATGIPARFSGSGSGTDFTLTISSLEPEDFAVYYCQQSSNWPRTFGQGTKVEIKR : 84.3
anti-PD-1 antibody 2 HC Ser71Cys (antibody, human IgG4 S228P, kappa, V domains shown, arm on Cys71 as named in each row) VH: QVQLVESGGGVVQPGRSLRLDCKASGITFSNSGMHWVRQAPGKGLEWVAVIWYDGSKRYYADSVKGRFTICRDNSKNTLFLQMNSLRAEDTAVYYCATNDDYWGQGTLVTVSS VL: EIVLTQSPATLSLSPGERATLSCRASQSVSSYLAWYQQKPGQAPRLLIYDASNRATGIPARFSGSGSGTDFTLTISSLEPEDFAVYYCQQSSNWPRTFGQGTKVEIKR : 81.4

--- query ---
Enquiry: Request the reported binding activity, % of wild type associated with anti-PD-1 antibody 2 HC Gly26Cys (antibody, human IgG4 S228P, kappa, V domains shown, arm on Cys26 as named in each row) VH: QVQLVESGGGVVQPGRSLRLDCKASCITFSNSGMHWVRQAPGKGLEWVAVIWYDGSKRYYADSVKGRFTISRDNSKNTLFLQMNSLRAEDTAVYYCATNDDYWGQGTLVTVSS VL: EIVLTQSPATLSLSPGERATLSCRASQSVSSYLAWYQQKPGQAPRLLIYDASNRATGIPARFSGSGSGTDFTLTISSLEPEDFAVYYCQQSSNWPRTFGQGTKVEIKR
Return: 95.4
